method_notes: S16 Schwann cell PMP22 intronic element beta-lactamase assay (AID 624044); further: nearly all actives have a fitted effect of over 15% in size
protocol_conditions: S16 rat Schwann cells, PMP22 element beta-lactamase FRET, 24 h
Method: Description: Charcot-Marie-Tooth-Association [CMTA] National Center for Advancing Translational Sciences [NCATS] […] S16 Schwann cell PMP22 intronic element beta-lactamase assay The beta-Lac-expressing S16 cells were seeded in black clear-bottom 1536 well plates at between 500-750 cells/6uL in DMEM medium containing 10% FBS, w/o phenol red. […] The concentration-effect curves were then classified based on curve quality (r2), response magnitude and degree of measured activity.
Records with an inconclusive call do not appear. Activity calls are given as the source filed them. The call rests on the fitted dose curve.
Your response should consist of one outcome taken from true (1) = active, false (0) = inactive

Could you kindly confirm the outcome this assay logged for CCC(=O)OC1(c2ccccc2)CCN(C)CC1C (centres undefined) ? false (0)

Could you kindly confirm the outcome this assay logged for CCOC(=O)/C=C(C)/C=C/CC(C)CCCC(C)C (centres undefined) ? false (0)

Could you kindly confirm the outcome this assay logged for "C[C@]12O[C@H](C[C@]1(O)CO)n1c3ccccc3c3c4c(c5c6ccccc6n2c5c31)CNC4=O" ? true (1)

Could you kindly confirm the outcome this assay logged for CN(C)C1C(=O)C(C(N)=O)C(=O)C2(O)C(=O)C3C(=O)c4c(O)cccc4C(C)(O)C3C(O)C12 (centres undefined) ? false (0)

* * *

Give max response for every item shown.
method_notes: qHTS assay for small molecule antagonists of peroxisome proliferator-activated receptor delta signaling (AID 588535);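 further: cells co-treated with a PPAR-delta agonist as stimulator during compound exposure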
protocol_conditions: HEK293T PPARd-UAS-bla, beta-lactamase FRET ratio, 18 h; 460 nm channel
Results filed as inconclusive are left out.
Write the value in % as a bare number.

max response for "CS(=O)(=O)c1cc(C(F)(F)F)ccc1C(=O)c1cnoc1C1CC1" ? 51.3

max response for "CC(C)(C)C(=O)[C@@H](Oc1ccc(Cl)cc1)n1cncn1" ? 38.3

max response for Clc1ccc(C2(Cn3cncn3)CC(Br)CO2)c(Cl)c1 (centres undefined) ? 30.9

max response for "O=C(O)[C@@H]1[C@H](C(=O)O)[C@@]2(Cl)C(Cl)=C(Cl)[C@]1(Cl)C2(Cl)Cl" ? 2.51

max response for "C#CCC1=C(C)[C@H](OC(=O)[C@H]2[C@H](C=C(C)C)C2(C)C)CC1=O" ? 25.2

max response for "COC(=O)c1c(C(F)F)nc(C(F)(F)F)c(C2=NCCS2)c1CC(C)C" ? -95

max response for "CCC(CC)Nc1c([N+](=O)[O-])cc(C)c(C)c1[N+](=O)[O-]" ? -38.2

max response for "CCOP(=S)(OCC)Oc1cnc2ccccc2n1" ? 6.57

max response for CCCCC(C#N)(Cn1cncn1)c1ccc(Cl)cc1 (centres undefined) ? 26.8

max response for "O=[As](O)(O)O" ? 6.63

max response for "Nc1ccc([N+](=O)[O-])cc1Cl" ? -22.4

max response for "NS(=O)(=O)C(F)(F)C(F)(F)C(F)(F)C(F)(F)C(F)(F)C(F)(F)C(F)(F)C(F)(F)F" ? 101

max response for "COc1nc(C)nc(NC(=O)NS(=O)(=O)c2ccccc2CCC(F)(F)F)n1" ? 34.6

max response for "Cc1ccccc1CO[C@@H]1C[C@@]2(C(C)C)CC[C@]1(C)O2" ? 49.2

max response for "C1=Cc2cccc3cccc1c23" ? -1.47

max response for CCOP(N)(=O)Oc1ccc(SC)c(C)c1 (centres undefined) ? 41.4

max response for "CCOc1ccc(C(C)(C)COCc2cccc(Oc3ccccc3)c2)cc1" ? -0.606

max response for "Cc1ccn2nc(S(=O)(=O)Nc3c(F)cccc3F)nc2n1" ? 35.3

max response for "CCC[CH2][Sn]([Cl])([Cl])[CH2]CCC" ? -91.3

max response for "CN(C)P(=O)(N(C)C)N(C)C" ? -0.709

max response for "COC[C@H](C)N(C(=O)CCl)c1c(C)csc1C" ? -36.8

max response for "COc1cc(OC)nc(NC(=O)NS(=O)(=O)c2ncccc2C(F)(F)F)n1" ? -12.7

max response for "CC1(C(=O)Nc2ccc(O)c(Cl)c2Cl)CCCCC1" ? 11.8

max response for "C[N+]1(C)CCCCC1" ? -14.2

max response for "CCNc1nc(Cl)nc(NC(C)(C)C)n1" ? 33.2

max response for CC(Oc1cc(Cl)c(Cl)cc1Cl)C(=O)O (centres undefined) ? 52.3

max response for "CNC(=O)Oc1cc(C)cc(C(C)C)c1" ? -13.9

max response for "CCOc1nc(F)cc2nc(S(=O)(=O)Nc3c(Cl)cccc3Cl)nn12" ? 23.2

max response for "CCC(C)(C)c1cc(-n2nc3ccccc3n2)c(O)c(C(C)(C)CC)c1" ? -9.56

max response for "CCCCOCCOC(C)=O" ? -10.5

max response for CCC(C)Nc1c([N+](=O)[O-])cc(C(C)(C)C)cc1[N+](=O)[O-] (centres undefined) ? -21.7

max response for "CN(C)c1nc(=O)n(C2CCCCC2)c(=O)n1C" ? 12.4

max response for "Cc1cc(C)nc(Nc2ccccc2)n1" ? -19.7

max response for CC1(C)C(C(=O)OC(C#N)c2cccc(Oc3ccccc3)c2)C1(C)C (centres undefined) ? 27.8

max response for CN/C(=N/[N+](=O)[O-])NCC1CCOC1 (centres undefined) ? 22.2

max response for "N#Cc1cc(I)c(O)c(I)c1" ? 43.3

max response for "O=c1[nH]c2ccccc2c(=O)o1" ? 29.4

max response for CCOC1Oc2ccc(OS(C)(=O)=O)cc2C1(C)C (centres undefined) ? -8.85

max response for CCC(C)c1cc([N+](=O)[O-])cc([N+](=O)[O-])c1O (centres undefined) ? 0.93

max response for CCCCC(CC)CO[N+](=O)[O-] (centres undefined) ? -28

max response for "C=CC(=O)NCO" ? 1.4

max response for CCC/C(=N\OCC)C1=C(O)CC(CC(C)SCC)CC1=O (centres undefined) ? -49.6

max response for "Cc1cccc2sc3nncn3c12" ? 26.1

max response for CCSC(C)CC1CC(=O)C(/C(CC)=N/OC/C=C/Cl)=C(O)C1 (centres undefined) ? 62.4

* * *

subject_of_test: Glucocorticoid receptor (Homo sapiens)
method_notes: qHTS assay for small molecule antagonists of glucocorticoid receptor signaling (AID 588533);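 further: cells stimulated with 2 nM dexamethasone as agonist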
protocol_conditions: HeLa MMTV-bla, GRE beta-lactamase ratio, antagonist mode, 18 h; series mostly up to 76.8 µM
Records with an inconclusive call do not appear. Active and inactive are the calls of the source. The call rests on the fitted dose curve; in most records, active means well fitted inhibition curve with a large enough effect in the signal ratio, with a control signal flat (not every such curve was filed as active); inconclusive means small, poorly fitted or top-dose-only effect, or effect the other way, or a change in a side signal; inactive means flat fitted curve, though single readings scatter; the % refers to the signal ratio.
Your response should consist of one outcome taken from active, inactive

Could you kindly confirm the outcome this assay logged for "COc1ccc(/C(=C/C(=O)N2CCOCC2)c2ccc(Cl)cc2)cc1OC" ? inactive

Could you kindly confirm the outcome this assay logged for "O=[N+]([O-])c1ccc(Oc2ccc(Cl)cc2Cl)cc1" ? inactive

Could you kindly confirm the outcome this assay logged for CCOC(=O)C(Cl)Cc1cc(-n2nc(C)n(C(F)F)c2=O)c(F)cc1Cl (stereo unspecified) ? inactive

Could you kindly confirm the outcome this assay logged for "COP(=O)(OC)Oc1nc(Cl)c(Cl)cc1Cl" ? inactive

Could you kindly confirm the outcome this assay logged for "CCNc1nc(NCC)nc(SC)n1" ? inactive

Could you kindly confirm the outcome this assay logged for CC1(C)CC/C(=C\c2ccc(Cl)cc2)C1(O)Cn1cncn1 (stereo unspecified) ? inactive

Could you kindly confirm the outcome this assay logged for "CCOP(=O)(OCC)Oc1ccc2c(C)c(Cl)c(=O)oc2c1" ? inactive

Could you kindly confirm the outcome this assay logged for "O=C(O)C(F)(F)C(F)(F)C(F)(F)C(F)(F)C(F)(F)C(F)(F)C(F)(F)C(F)(F)F" ? inactive

Could you kindly confirm the outcome this assay logged for "Cn1cc(-c2ccccc2)c(=O)c(-c2cccc(C(F)(F)F)c2)c1" ? inactive

Could you kindly confirm the outcome this assay logged for CCCCC(CC)C(=O)Cl (stereo unspecified) ? inactive

Could you kindly confirm the outcome this assay logged for "CCOP(=S)(OCC)SCSP(=S)(OCC)OCC" ? inactive

Could you kindly confirm the outcome this assay logged for "O=Cc1cccc(Oc2ccccc2)c1" ? inactive

Could you kindly confirm the outcome this assay logged for CC(C)C(=O)OCC(C)(C)C(OC(=O)C(C)C)C(C)C (stereo unspecified) ? inactive

Could you kindly confirm the outcome this assay logged for "ClCc1ccccc1Cl" ? inactive

Could you kindly confirm the outcome this assay logged for "c1cc2c3c(cccc3c1)CC2" ? inactive

Could you kindly confirm the outcome this assay logged for N#CC(CCc1ccc(Cl)cc1)(Cn1cncn1)c1ccccc1 (stereo unspecified) ? inactive

Could you kindly confirm the outcome this assay logged for "O=C(O)C(F)(F)C(F)(F)C(F)(F)C(F)(F)C(F)(F)C(F)(F)C(F)(F)C(F)(F)C(F)(F)F" ? inactive

Could you kindly confirm the outcome this assay logged for CCOP(=O)(NC(C)C)Oc1ccc(S(C)=O)c(C)c1 (stereo unspecified) ? inactive

Could you kindly confirm the outcome this assay logged for "NS(=O)(=O)C(F)(F)C(F)(F)C(F)(F)C(F)(F)C(F)(F)C(F)(F)C(F)(F)C(F)(F)F" ? inactive

Could you kindly confirm the outcome this assay logged for CC(C)(C)C(O)/C(=C\c1ccc(Cl)cc1Cl)n1cncn1 (stereo unspecified) ? active

Could you kindly confirm the outcome this assay logged for "O=[N+]([O-])Nc1nccn1Cc1ccc(Cl)nc1" ? inactive

Could you kindly confirm the outcome this assay logged for "O=[As](O)(O)O" ? inactive

Could you kindly confirm the outcome this assay logged for CC1CCCCC1NC(=O)Nc1ccccc1 (stereo unspecified) ? inactive

Could you kindly confirm the outcome this assay logged for "CNC(=O)Oc1ccc(N(C)C)c(C)c1" ? inactive

Could you kindly confirm the outcome this assay logged for CCOP(N)(=O)Oc1ccc(SC)c(C)c1 (stereo unspecified) ? inactive

Could you kindly confirm the outcome this assay logged for "COC[C@H](C)N(C(=O)CCl)c1c(C)csc1C" ? inactive

Could you kindly confirm the outcome this assay logged for "Nc1cnn(-c2ccccc2)c(=O)c1Cl" ? inactive

Could you kindly confirm the outcome this assay logged for "CCS(=O)(=O)c1cccnc1S(=O)(=O)NC(=O)Nc1nc(OC)cc(OC)n1" ? inactive

Could you kindly confirm the outcome this assay logged for "Nc1c(Cl)c(F)nc(OCC(=O)O)c1Cl" ? inactive

Could you kindly confirm the outcome this assay logged for "CC(C)Oc1cc(-n2nc(C(C)(C)C)oc2=O)c(Cl)cc1Cl" ? inactive

Could you kindly confirm the outcome this assay logged for "CC(C)(C)[C@@H](O)/C(=C\c1ccc(Cl)cc1Cl)n1cncn1" ? inactive
